Reference source for all entries: patent US20250170248A1

targetOrSystem: SMARCA4 (Homo sapiens, UniProt P51532)
Construct: SMARCA2/SMARCA4 protein degradation selectivity in MV4-11 cells; endogenous in cells; host or cells: MV4-11
Sequence (P51532 whole entry): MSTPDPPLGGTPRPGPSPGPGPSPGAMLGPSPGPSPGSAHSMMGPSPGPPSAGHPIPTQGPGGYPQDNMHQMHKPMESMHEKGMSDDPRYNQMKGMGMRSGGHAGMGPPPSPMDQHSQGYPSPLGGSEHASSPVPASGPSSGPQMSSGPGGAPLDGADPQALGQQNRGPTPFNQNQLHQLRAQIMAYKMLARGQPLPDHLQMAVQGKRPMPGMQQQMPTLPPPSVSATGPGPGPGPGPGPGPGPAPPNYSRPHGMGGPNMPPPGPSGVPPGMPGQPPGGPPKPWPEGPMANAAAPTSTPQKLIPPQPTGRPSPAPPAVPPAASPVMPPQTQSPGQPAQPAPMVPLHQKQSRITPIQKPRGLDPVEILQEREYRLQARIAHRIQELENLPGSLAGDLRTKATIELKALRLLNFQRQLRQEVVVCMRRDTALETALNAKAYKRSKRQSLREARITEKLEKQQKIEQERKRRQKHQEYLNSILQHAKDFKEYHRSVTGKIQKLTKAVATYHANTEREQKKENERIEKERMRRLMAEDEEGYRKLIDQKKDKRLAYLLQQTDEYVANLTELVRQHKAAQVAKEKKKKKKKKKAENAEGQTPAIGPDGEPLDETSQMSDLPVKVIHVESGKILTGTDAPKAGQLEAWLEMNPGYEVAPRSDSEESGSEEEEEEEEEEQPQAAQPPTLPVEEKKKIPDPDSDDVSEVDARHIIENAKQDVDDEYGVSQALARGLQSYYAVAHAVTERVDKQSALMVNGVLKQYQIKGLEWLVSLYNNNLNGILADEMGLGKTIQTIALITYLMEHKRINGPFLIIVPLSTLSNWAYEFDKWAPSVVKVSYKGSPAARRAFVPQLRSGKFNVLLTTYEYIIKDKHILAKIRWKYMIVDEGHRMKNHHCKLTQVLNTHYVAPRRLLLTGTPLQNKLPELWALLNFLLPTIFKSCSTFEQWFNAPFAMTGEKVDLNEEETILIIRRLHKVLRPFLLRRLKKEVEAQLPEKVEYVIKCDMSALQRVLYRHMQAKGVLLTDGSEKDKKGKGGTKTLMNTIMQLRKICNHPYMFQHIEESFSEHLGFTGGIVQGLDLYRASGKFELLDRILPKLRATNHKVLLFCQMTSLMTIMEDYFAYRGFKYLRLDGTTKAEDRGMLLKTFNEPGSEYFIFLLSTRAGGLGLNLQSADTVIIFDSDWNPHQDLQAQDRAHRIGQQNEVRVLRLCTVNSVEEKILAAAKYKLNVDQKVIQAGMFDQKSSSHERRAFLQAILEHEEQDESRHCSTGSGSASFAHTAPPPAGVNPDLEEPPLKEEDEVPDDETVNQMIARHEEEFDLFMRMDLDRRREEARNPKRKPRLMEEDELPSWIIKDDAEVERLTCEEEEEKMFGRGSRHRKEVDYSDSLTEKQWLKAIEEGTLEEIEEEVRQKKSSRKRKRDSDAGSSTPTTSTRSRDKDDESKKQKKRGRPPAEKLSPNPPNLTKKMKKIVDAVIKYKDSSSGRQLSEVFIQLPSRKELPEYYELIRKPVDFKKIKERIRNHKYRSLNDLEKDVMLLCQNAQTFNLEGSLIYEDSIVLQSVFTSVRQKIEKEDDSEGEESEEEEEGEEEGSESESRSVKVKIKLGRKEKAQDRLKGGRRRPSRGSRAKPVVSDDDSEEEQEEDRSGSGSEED
procedureDetails: SMARCA4 Western blot degradation in MV4-11 cells
Assay type: cell-based
reportedConditions: MV4-11, MV4-11 cells, 24 h; read-out: SMARCA4 MSD MV411 degradation 24 h: average Dmax %
Experimental: Example 11. SMARCA2 and SMARCA4 Western Blot MV4-11 Degradation Cells were seeded into 6-well plates (MV4-11:4×10^6 cells/well/1 ml) and 1 ml of 2× compound solution was added into the well to make the final concentration and the plates were mixed well and incubated for 24 hours (No cytotoxicity was observed). The cell were collected with media and spun at 3000 rpm for 5 minutes. […] The membrane was washed three times with 5 minutes each and lastly the LiCOR was read. […]
measurementLabel: Dmax

- compound: "C#Cc1ccc(CNC(=O)[C@@H]2C[C@@H](O)CN2C(=O)[C@@H](NC(=O)[C@H]2CCC3(CC2)C[C@H](N2CCC(c4cnc(N5CCN6c7cc(-c8cccc(F)c8O)nnc7NC[C@H]6C5)nc4)CC2)C3)C(C)(C)C)cc1 (single isomer, unassigned) [I-102]"
  result: "50 to 70%"
- compound: "C#Cc1ccc(CNC(=O)[C@@H]2C[C@@H](O)CN2C(=O)[C@@H](NC(=O)CCCN2CCC(N3CC4(CC(N5CCN6c7cc(-c8ccccc8O)nnc7NC[C@H]6C5)C4)C3)CC2)C(C)(C)C)cc1 (single isomer, unassigned) [I-244]"
  result: "50 to 70%"
- compound: "C#Cc1ccc([C@H](C)NC(=O)[C@@H]2C[C@@H](O)CN2C(=O)[C@@H](NC(=O)[C@H]2CC3(C2)C[C@H](c2cnc(N4CCC(N5CCN6c7cc(-c8ccccc8O)nnc7NC[C@H]6C5)CC4)nc2)C3)C(C)(C)C)cc1 (stereo partly shown) [I-362]"
  result: "70 to 90%"
- compound: "Cc1ncsc1-c1ccc(CNC(=O)[C@@H]2C[C@@H](O)CN2C(=O)[C@@H](NC(=O)C2(F)CC2)C(C)(C)C)c(O[C@H]2CC[C@@H](N3CCC(c4cnc(N5CCc6[nH]c7nnc(-c8ccccc8O)cc7c6[C@@H]5C)nc4)CC3)CC2)c1 (single isomer, unassigned) [I-34]"
  result: "50 to 70%"
